Hey, just so you know, these numbers are from ChEMBL document CHEMBL5500381.

- procedure-summary: Selectivity index, ratio of CC50 for cytotoxicity against African green monkey Vero cells to EC50 for anti-viral activity against DENV-2 Thailand/16681/1984 strain
- Format: toxicity, cell-based
- assay-setup: read-out: Selectivity Index
Each item that follows carries a reported selectivity ratio.
Just the number.

Below: 6 compounds and their reported selectivity ratio.
Fc1ccc(CNc2cc(C(F)(F)F)nc(NCCN3CCCCC3)n2)cc1; 2.96
CC1(C)CC(Nc2nc(C#N)cc(Nc3ccc(-c4ccccc4)cc3)n2)CC(C)(C)N1; 3.82
FC(F)(F)c1cc(Nc2ccc(Cl)cc2)nc(NCCN2CCCCC2)n1; 1.88
CC1(C)CC(Nc2nccc(Nc3ccc(Cl)cc3)n2)CC(C)(C)N1; 1.64
FC(F)(F)c1cc(NCc2ccc(Cl)cc2)nc(NCCN2CCCCC2)n1; 20.5
CC1(C)CC(Nc2nccc(NCc3ccc(Cl)cc3)n2)CC(C)(C)N1; 1.54

Continue with the compound presented below.
Query (compound): `N#Cc1cc(Nc2ccc(-c3ccccc3)cc2)nc(NCCN2CCCCC2)n1` ; field requested: selectivity ratio 3.15

----------
- Test system: dengue virus type 2
- procedure-summary: Anti-viral activity against DENV-2 Thailand/16681/1984 strain infected in african green monkey Vero cells at 0.1 MOI assessed as reduction in virus yield measured after 48 hrs by virus reduction assay
- Type: functional, organism-based
- assay-setup: Thailand/16681/1984, Vero
Each item that follows carries a reported pEC50.
Conceptually, pEC50 converts a concentration in mol/L into minus its log10.

Query (compound): `c1ccc(-c2ccc(Nc3nc(NCCN4CCCCC4)nc4ccsc34)cc2)cc1` ; field requested: pEC50 5.09

Field entry: `CC1(C)CC(Nc2nccc(Nc3ccc(Cl)cc3)n2)CC(C)(C)N1` 5.50

Field entry: `CC1(C)CC(Nc2nccc(NCc3ccc(Cl)cc3)n2)CC(C)(C)N1` 5.33

Field entry: `FC(F)(F)c1cc(Nc2ccc(-c3ccccc3)cc2)nc(NCCN2CCCCC2)n1` 6.12

Field entry: `Fc1ccc(CNc2cc(C(F)(F)F)nc(NCCN3CCCCC3)n2)cc1` 4.79

----------
Each item that follows carries a reported log10 EC50.
- System: Zika virus
- procedure-summary: Anti-viral activity against ZIKV Argentine strain INEVH116141 infected in african green monkey Vero cells at 0.1 MOI assessed as reduction in virus yield measured after 48 hrs by virus reduction assay
- Assay type: functional, organism-based
Form field - Quantity: EC50; Unit: µM; Scale: log10

CC1(C)CC(Nc2nc(Nc3ccc(-c4ccccc4)cc3)c3sccc3n2)CC(C)(C)N1; 0.62

Query (molecule): `c1ccc(-c2ccc(Nc3nc(NCCN4CCCCC4)nc4ccsc34)cc2)cc1` ; field requested: log10 EC50 0.61

Field entry: `CC1(C)CC(Nc2nccc(NCc3ccc(Cl)cc3)n2)CC(C)(C)N1` 0.91

Field entry: `CC1(C)CC(Nc2nc(C#N)cc(Nc3ccc(-c4ccccc4)cc3)n2)CC(C)(C)N1` 0.64

Field entry: `Cc1ccc(CNc2cc(C(F)(F)F)nc(NCCN3CCCCC3)n2)cc1` 1.13

Field entry: `Fc1ccc(CNc2cc(C(F)(F)F)nc(NCCN3CCCCC3)n2)cc1` 1.23

Field entry: `FC(F)(F)c1cc(Nc2ccc(Cl)cc2)nc(NCCN2CCCCC2)n1` 1.00

Field entry: `FC(F)(F)c1cc(NCc2ccc(Cl)cc2)nc(NCCN2CCCCC2)n1` 0.42

Field entry: `COc1ccc(CNc2cc(C(F)(F)F)nc(NCCN3CCCCC3)n2)cc1` 1.10

Field entry: `N#Cc1cc(Nc2ccc(-c3ccccc3)cc2)nc(NCCN2CCCCC2)n1` 0.63

Field entry: `FC(F)(F)c1cc(Nc2ccc(-c3ccccc3)cc2)nc(NCCN2CCCCC2)n1` 0.05

Field entry: `CC1(C)CC(Nc2nccc(Nc3ccc(Cl)cc3)n2)CC(C)(C)N1` 0.39

----------
- procedure-summary: Selectivity index, ratio of CC50 for cytotoxicity against African green monkey Vero cells to EC50 for anti-viral activity against ZIKV Argentine strain INEVH116141
- Format: toxicity, cell-based
- assay-setup: read-out: Selectivity Index
value-kind: selectivity ratio
Just the number.

Below: 8 compounds and their reported selectivity ratio.
FC(F)(F)c1cc(NCc2ccc(Cl)cc2)nc(NCCN2CCCCC2)n1; 9.13
CC1(C)CC(Nc2nccc(NCc3ccc(Cl)cc3)n2)CC(C)(C)N1; 0.88
CC1(C)CC(Nc2nc(C#N)cc(Nc3ccc(-c4ccccc4)cc3)n2)CC(C)(C)N1; 1.7
CC1(C)CC(Nc2nc(Nc3ccc(-c4ccccc4)cc3)c3sccc3n2)CC(C)(C)N1; 1.54
CC1(C)CC(Nc2nccc(Nc3ccc(Cl)cc3)n2)CC(C)(C)N1; 2.09
COc1ccc(CNc2cc(C(F)(F)F)nc(NCCN3CCCCC3)n2)cc1; 3.07
Fc1ccc(CNc2cc(C(F)(F)F)nc(NCCN3CCCCC3)n2)cc1; 2.84
Cc1ccc(CNc2cc(C(F)(F)F)nc(NCCN3CCCCC3)n2)cc1; 3.63

Query (compound): `c1ccc(-c2ccc(Nc3nc(NCCN4CCCCC4)nc4ccsc34)cc2)cc1` ; field requested: selectivity ratio 1.83

----------
- System: dengue virus type 2
- procedure-summary: Anti-viral activity against DENV-2 Thailand/16681/1984 strain infected in african green monkey Vero cells at 0.1 MOI assessed as reduction in virus yield measured after 48 hrs by virus reduction assay
- Format: functional, organism-based
- assay-setup: Thailand/16681/1984, Vero
Each item that follows carries a reported pEC50.
Conceptually, pEC50 converts a concentration in mol/L into minus its log10.

CC1(C)CC(Nc2nc(Nc3ccc(-c4ccccc4)cc3)c3sccc3n2)CC(C)(C)N1; 5.31
CC1(C)CC(Nc2nc(C#N)cc(Nc3ccc(-c4ccccc4)cc3)n2)CC(C)(C)N1; 5.71
FC(F)(F)c1cc(NCc2ccc(Cl)cc2)nc(NCCN2CCCCC2)n1; 5.94
FC(F)(F)c1cc(Nc2ccc(Cl)cc2)nc(NCCN2CCCCC2)n1; 5.00

Continue with the compound presented below.
Query (compound): `N#Cc1cc(Nc2ccc(-c3ccccc3)cc2)nc(NCCN2CCCCC2)n1` ; field requested: pEC50 5.09

----------
- procedure-summary: Selectivity index, ratio of CC50 for cytotoxicity against African green monkey Vero cells to EC50 for anti-viral activity against DENV-2 Thailand/16681/1984 strain
- Type: toxicity, cell-based
- assay-setup: read-out: Selectivity Index
value-kind: selectivity ratio
Just the number.

Below: 2 compounds and their reported selectivity ratio.
c1ccc(-c2ccc(Nc3nc(NCCN4CCCCC4)nc4ccsc34)cc2)cc1; 0.92
CC1(C)CC(Nc2nc(Nc3ccc(-c4ccccc4)cc3)c3sccc3n2)CC(C)(C)N1; 1.3

Query (compound): `FC(F)(F)c1cc(Nc2ccc(-c3ccccc3)cc2)nc(NCCN2CCCCC2)n1` ; field requested: selectivity ratio 7.55

----------
Each item that follows carries a reported CC50 at 72 h.
- procedure-summary: Cytotoxicity against African green monkey Vero cells assessed as cell viability measured after 72 hrs by MTT assay
- Format: toxicity, cell-based
- assay-setup: chlorocebus sabaeus
Express the result in µM but write the number alone.

Below: 3 molecules and their reported CC50 at 72 h.
FC(F)(F)c1cc(NCc2ccc(-c3ccccc3)cc2)nc(NCCN2CCCCC2)n1; 36.9
CC1(C)CC(Nc2nccc(NCc3ccc(Cl)cc3)n2)CC(C)(C)N1; 7.2
O=C(Nc1cc(C(F)(F)F)nc(NCCN2CCCCC2)n1)c1ccc(Cl)cc1; 20.8

Query (molecule): `FC(F)(F)c1cc(NCc2ccc(Cl)cc2)nc(NCCN2CCCCC2)n1` ; field requested: CC50 at 72 h 23.8

Field entry: `Nc1ccc(CNc2cc(C(F)(F)F)nc(NCCN3CCCCC3)n2)cc1` 8.92

Field entry: `Fc1cc(Cl)ccc1CNc1cc(C(F)(F)F)nc(NCCN2CCCCC2)n1` 9.07

Field entry: `CC1(C)CC(Nc2nc(Nc3ccc(-c4ccccc4)cc3)c3sccc3n2)CC(C)(C)N1` 6.4

Field entry: `Cc1ccc(CNc2cc(C(F)(F)F)nc(NCCN3CCCCC3)n2)cc1` 49

Field entry: `FC(F)(F)c1cc(Nc2ccc(C3CCCCC3)cc2)nc(NCCN2CCCCC2)n1` 8.39

Field entry: `CC1(C)CC(Nc2ncnc(Nc3ccc(-c4ccccc4)cc3)n2)CC(C)(C)N1` 5.01

----------
Each item that follows carries a reported selectivity ratio.
- procedure-summary: Selectivity index, ratio of CC50 for cytotoxicity against African green monkey Vero cells to EC50 for anti-viral activity against DENV-2 Thailand/16681/1984 strain
- Type: toxicity, cell-based
- assay-setup: read-out: Selectivity Index

COc1ccc(CNc2cc(C(F)(F)F)nc(NCCN3CCCCC3)n2)cc1; < 2
Cc1ccc(CNc2cc(C(F)(F)F)nc(NCCN3CCCCC3)n2)cc1; < 2.5

Query (compound): `O=C(Nc1cc(C(F)(F)F)nc(NCCN2CCCCC2)n1)c1ccc(Cl)cc1` ; field requested: selectivity ratio < 1.05
